System: KRas G12V (Homo sapiens, UniProt P01116, G12V);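 also: KRas binding measured by TR-FRET displacement at room temperature, IC50 fitted from percent of control values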
Sequence (P01116 1-169 isoform P01116-2 G12V): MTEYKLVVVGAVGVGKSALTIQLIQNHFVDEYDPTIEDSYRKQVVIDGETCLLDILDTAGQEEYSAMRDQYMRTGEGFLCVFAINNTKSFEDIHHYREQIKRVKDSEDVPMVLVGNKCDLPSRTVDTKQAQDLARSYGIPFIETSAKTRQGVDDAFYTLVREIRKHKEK
Assay method text: biochemical
Endpoint name: IC50

// field: IC50; key: O=C1NC(=O)C2CN(c3nc(OCC45CCCN4CCC5)nc4c(F)c(-c5cccc6cccc(F)c56)ncc34)CC12 (stereo not drawn) [Example 228] ; value = 148 nM

// field: IC50; key: O=C1NCC12CCCN(c1nc(OC[C@@]34CCCN3C[C@H](F)C4)nc3c(F)c(-c4cc(O)cc5ccc(F)c(Br)c45)ncc13)C2 (stereo partly drawn) [Example 406] ; value = 5 nM

// field: IC50; key: CCc1c(F)ccc2cc(O)cc(-c3ncc4c(N5CCCn6nc(N)cc6C5)nc(OC[C@@]56CCCN5C[C@H](F)C6)nc4c3F)c12 [Example 61] ; value = ≤ 2 nM

// field: IC50; key: O=S1(=O)NCC2(CCCN(c3nc(OC[C@@]45CCCN4C[C@H](F)C5)nc4c(F)c(-c5cc(O)cc6ccc(F)c(Br)c56)ncc34)C2)N1 (stereo partly drawn) [Example 411] ; value = ≤ 2 nM

// field: IC50; key: OCC1COCCN(c2nc(OCC34CCCN3CCC4)nc3c(F)c(-c4cccc5cccc(F)c45)ncc23)C1 (stereo not drawn) [Example 83] ; value = 498 nM

// field: IC50; key: OCc1cc2n(n1)CCCN(c1nc(OCC34CCCN3CCC4)nc3c(F)c(-c4cccc5cccc(F)c45)ncc13)C2 [Example 261] ; value = 3980 nM

---

Tested on: pERK in H460 cells
Assay method text: Inhibition of KRas phosphorylation of ERK (Cisbio HTRF pERK assay)
Condition notes: Homo sapiens, NCI-H460, read-out: Inhibition (HTRF IC50) of KRas-mediated Phosphorylation of ERK, H460
Threshold-based label: IC50 under 70 nM gives yes (1), IC50 not under 70 nM gives no (0).

input: Take the compound C#Cc1c(F)ccc2cc(O)cc(-c3ncc4c(N5CCOC[C@@](C)(O)C5)nc(OC[C@@]56CCCN5C[C@H](F)C6)nc4c3F)c12 [Example 201] and say whether its IC50 is less than 70 nM.
output: no (0)

input: Take the compound CCc1c(F)ccc2cc(O)cc(-c3ncc4c(N5CCOC[C@@]6(C5)CC6(F)F)nc(OC[C@@]56CCCN5C[C@H](F)C6)nc4c3F)c12 [Example 498] and say whether its IC50 is less than 70 nM.
output: yes (1)

input: Take the compound CCc1c(F)ccc2cc(O)cc(-c3ncc4c(N5CCOCC6(COC6)C5)nc(OC[C@@]56CCCN5C[C@H](F)C6)nc4c3F)c12 [Example 480] and say whether its IC50 is less than 70 nM.
output: yes (1)

input: Take the compound CCc1c(F)ccc2cc(O)cc(-c3ncc4c(N5CCCC6(C5)NC(=O)NC6=O)nc(OC[C@@]56CCCN5C[C@H](F)C6)nc4c3F)c12 (stereo partly drawn) [Example 196] and say whether its IC50 is less than 70 nM.
output: yes (1)

input: Take the compound CCc1c(F)ccc2cc(O)cc(-c3ncc4c(N5CCC[C@@](C)(O)C5)nc(OC[C@@]56CCCN5[C@H](COC(=O)N5CCOCC5)CC6)nc4c3F)c12 [Example 511] and say whether its IC50 is less than 70 nM.
output: yes (1)

input: Take the compound C#Cc1c(F)ccc2cc(O)cc(-c3ncc4c(N5C[C@@H]6C[C@H](C5)[C@H](O)C6)nc(OC[C@@]56CCCN5C[C@H](F)C6)nc4c3F)c12 [Example 388] and say whether its IC50 is less than 70 nM.
output: yes (1)
